Assay: Tmax in Sprague-Dawley rat at 2 mg/kg, iv administered as single dose by HPLC/MS/MS method
Format: ADME, organism-based
Details: in vivo
TEST_READOUT: Tmax (min)

INSERT INTO results (chem_smiles, test_readout, assay_result) VALUES
  ('Cc1cc(/C=C/c2cc3ccc(O)cc3nc2Cl)cc(C)c1O', 'Tmax', 4.98),
  ('Cc1cc(C#Cc2ccc3cc(N)ccc3n2)cc(C)c1O', 'Tmax', 4.98);

---

Target: Transthyretin (Homo sapiens, UniProt P02766)
Assay: Inhibition of wild type TTR (unknown origin) assessed as inhibition of acid-mediated amyloidogenesis by measuring fibril formation at 7.2 uM preincubated with enzyme followed by amyloidogenesis stimulation by adjusting pH to 4.4 measured after 72 hrs relative to control
Parameters: scale not given: the % may be the effect or the level left
TEST_READOUT: Activity (%)

INSERT INTO measurements (chem_smiles, test_readout, assay_result) VALUES
  ('CCc1cc(C#Cc2ccc3ccccc3n2)ccc1O', 'Activity', 99);

[A] Oc1ccc(C#Cc2ccc3ccccc3n2)cc1
[B] Cc1cc(C#Cc2ccc3cc(O)ccc3n2)cc(C)c1O
Out of A and B , name the one with the higher Activity. Output the label that corresponds to your choice.
A
